Would you kindly list Inhibition of IL-8 release in a dual cell assay (HEK293-cyCD30L cells + K299 cells) IC50 for each of these binders?
molecular target: cynomolgus CD30L on HEK293 cells (cynomolgus); assay: cell-based or functional assay
Answers are plain numbers, in nM.

These recorded examples may help you get a feel for the data.
Clone 2, Human IgG1 (antibody, V domains shown) VH: EVQLVESGGGLVQPGRSLRLSCAASGFNFDDYAMHWVRQAPGKGLEWVSGISWRSGNIGYAGSVKGRFTISRDNAKNSLYLQMNSLRPEDSALYYCAKDKGIGFNWNYEGFDYWGQGTLVTVSS VL: DIQMTQSPSSLSASVGDRVTITCRASQGISNHLAWFQQKPGKAPKSLIYAASSLQSGVPSKFSGSGSGTDFTLTISSLQPEDFATYYCQQYVTYPLTFGGGTKVEIK | 0.24
anti-CD30L Reference 1 antibody (antibody, human IgG1, lambda, V domains shown) VH: QVQLQESGPGLVKPSETLSLTCTVSGGSISSYIWSWIRQPAGKGLEWIGRIYASGNTNYNPSLKSRVTISVDTSKNQFSLKLSSMTAADTAVYYCARDYRVAGTYYYYYGLDVWGQGTTVTVSS VL: QSALTQPASVSGSPGQSITISCTGTSSDVGVYDYVSWYQQHPGKAPKLMIYEVSNRPSGVSNRFSGSKSGNTASLTISGLQTEDEADYYCSSYTSRSTWVFGGGTKLTVLG | 0.68
Clone 1, Human IgG1 (antibody, V domains shown) VH: QVQLQESGPGLVKPSETLSLTCTVSGGSISGYYWSWIRQPPVKGLEWIGYIFYSGYTKYNPSLKSRVTISVDTSKNQFSLKLSSVTAADTAVYYCARDRWDFDYWGQGALVTVSS VL: AIQMTQSPSYLSASVGDRVTIACRASQGIRNNLGWYQQKPGKAPKLLIYAESSLQSGVPSRFSGSGSGTDFTLTISSLQPEDFATYYCLQDFNYPYTFGQGTKLEIK | 0.22
Clone 2, Mouse IgG (antibody, V domains shown) VH: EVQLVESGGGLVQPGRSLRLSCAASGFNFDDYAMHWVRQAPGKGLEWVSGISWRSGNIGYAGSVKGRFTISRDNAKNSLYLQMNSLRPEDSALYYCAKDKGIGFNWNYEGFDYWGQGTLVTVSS VL: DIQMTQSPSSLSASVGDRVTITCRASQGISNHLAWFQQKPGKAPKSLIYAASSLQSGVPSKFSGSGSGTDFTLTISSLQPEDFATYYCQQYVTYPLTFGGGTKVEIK | 0.46

Please give the measured Inhibition of IL-8 release in a dual cell assay (HEK293-cyCD30L cells + K299 cells) IC50 for this binder: Clone 1, Mouse IgG (antibody, V domains shown) VH: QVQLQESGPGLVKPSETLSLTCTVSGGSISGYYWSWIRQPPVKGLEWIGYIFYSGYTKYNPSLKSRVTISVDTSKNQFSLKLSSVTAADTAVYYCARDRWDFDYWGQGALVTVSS VL: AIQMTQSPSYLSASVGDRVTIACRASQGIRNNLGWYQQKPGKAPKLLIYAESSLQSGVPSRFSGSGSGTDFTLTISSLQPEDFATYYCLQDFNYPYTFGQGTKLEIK
0.55

src = patent US20260209372A1
